System: SK-MEL-5 melanoma
Assay: NCI-60 one-dose screen, 48 h
Details: 10 µM unless noted
This is part of a sample that, as a whole, favours compounds with a hit. Of some 83,000 tested, about 20% had one in any assay. Activity calls are given as the source filed them. Rule for the calls: active = growth percent below 10; inactive = the rest.
Outcome codes: active, inactive

>  <MOLECULE>
Cc1cc(N(CCCNc2ccnc3cc(Cl)ccc23)Cc2ccccn2)nc(N2CCOCC2)n1

>  <CLASS NAME>
inactive

$$$$
>  <MOLECULE>
CN(C)c1ccc(/C=C2\C=C(c3ccccc3)N(CCc3ccccc3)C2=O)cc1

>  <CLASS NAME>
inactive

$$$$
>  <MOLECULE>
Clc1ccc(-c2nnc(-c3ccco3)o2)cc1

>  <CLASS NAME>
inactive

$$$$
>  <MOLECULE>
C=C(C)[C@@H]1CC[C@]2(CN)CC[C@]3(C)[C@H](CC[C@@H]4[C@@]5(C)CCC(N)[C@@](C)(CO)[C@@H]5CC[C@]43C)[C@@H]12 (some centres undefined)

>  <CLASS NAME>
active

$$$$
>  <MOLECULE>
N=C(N)c1ccc(-c2ccc(-c3ccc(Cl)cc3Cl)o2)cc1

>  <CLASS NAME>
inactive

$$$$
>  <MOLECULE>
Oc1[nH]c2ccccc2c1/C=c1/cc2c(c(-c3ccc(F)cc3)n1)=Nc1ccccc1-2

>  <CLASS NAME>
active

$$$$
>  <MOLECULE>
NC(=S)N/N=C/C(=O)O

>  <CLASS NAME>
inactive

$$$$
>  <MOLECULE>
CCCNCC(=O)Nc1ccc(C(=O)OC(C)(C)CC)cc1

>  <CLASS NAME>
inactive

$$$$
>  <MOLECULE>
NC(=O)c1c(NC(=O)c2ccc(C(F)(F)F)cc2Cl)sc2c1CCC(=O)C2

>  <CLASS NAME>
active

$$$$
>  <MOLECULE>
CC1(C)N=C(N)N=C(N)N1c1ccc(Cl)c(Cl)c1

>  <CLASS NAME>
inactive

$$$$
>  <MOLECULE>
CCN(CC)CCOC(=O)N1c2ccccc2Sc2ccccc21

>  <CLASS NAME>
inactive

$$$$
>  <MOLECULE>
O=C(Nc1ccccc1)c1sc(-c2cccc(C(F)(F)F)c2)cc1O

>  <CLASS NAME>
inactive

$$$$
>  <MOLECULE>
CCCCCCNCc1cc(C(C)(C)C)cc(CNCCCCCC)c1O

>  <CLASS NAME>
active

$$$$
>  <MOLECULE>
CCn1c(Sc2nnc(NC(=O)CSC(=S)N3CCCCC3)s2)nc2c1c(=O)n(C)c(=O)n2C

>  <CLASS NAME>
inactive

$$$$
>  <MOLECULE>
Cc1ccc(/C(=N\N=C(N)N)c2ccccc2)cc1

>  <CLASS NAME>
active

$$$$
>  <MOLECULE>
C=C1c2c(C)nn(-c3ccc(O)cc3)c2N(C)C23C[C@@H]1C1(C)c4c(C)nn(-c5ccc(O)cc5)c4N(C)C(C)(C[C@H]12)C3 (some centres undefined)

>  <CLASS NAME>
inactive

$$$$
>  <MOLECULE>
COc1cc2cc(Oc3ccc(NC(=O)Nc4cc(C(F)(F)F)cc(C(F)(F)F)c4)cc3)c(C)nc2cc1OCCN1CCCCC1

>  <CLASS NAME>
active

$$$$
>  <MOLECULE>
CN1CCN(c2ccc(Nc3ncc(Cl)c(NC[C@@H]4CCCO4)n3)cc2)CC1

>  <CLASS NAME>
inactive

$$$$
>  <MOLECULE>
C/C(=N\NC(=O)Cn1c(-c2ccc(S(C)(=O)=O)cc2)nc2cc(Cl)ccc21)c1ccc(Cl)cc1

>  <CLASS NAME>
inactive

$$$$
>  <MOLECULE>
CN(C)CCCCNc1ccc(NCCCCN(C)C)c2c1C(=O)c1c(O)ccc(O)c1C2=O

>  <CLASS NAME>
inactive

$$$$
>  <MOLECULE>
COc1ccc(-c2c(N)n[nH]c2-c2ccccc2O)cc1OC

>  <CLASS NAME>
inactive

$$$$
>  <MOLECULE>
COc1ccc(CN2C(=O)/C(=C\c3cc(OC)c(OC)c(OC)c3)c3ccccc32)cc1

>  <CLASS NAME>
active

$$$$
>  <MOLECULE>
Cc1nc(Nc2ccc(N)cc2)c2ccccc2n1

>  <CLASS NAME>
inactive

$$$$
>  <MOLECULE>
CCOc1ccc(-c2nc3ccc(-c4nc5ccc(N6CCN(C)CC6)cc5[nH]4)cc3[nH]2)cc1OCC

>  <CLASS NAME>
active

$$$$
>  <MOLECULE>
C=CCN1C(=O)[C@]2(SC1=S)[C@H](c1cccc(Cl)c1)CN(C)[C@]21C(=O)NC2C=CC(Cl)=C[C@H]21 (some centres undefined)

>  <CLASS NAME>
inactive

$$$$
>  <MOLECULE>
CCCCCCCC/C=C/CCCCCCCC1=NCC[N+]1(CCO)CCO

>  <CLASS NAME>
inactive

$$$$
>  <MOLECULE>
CC(=O)Nc1ccc(C(=O)/C=C/c2ccccc2)cc1

>  <CLASS NAME>
inactive

$$$$
>  <MOLECULE>
O=[N+]([O-])c1cccc(/C=C/c2ccccn2)c1

>  <CLASS NAME>
inactive

$$$$
>  <MOLECULE>
Cl.[Pt].[c-]1ccccc1-c1ccccn1.c1ccc(P(c2ccccc2)C([PH+](c2ccccc2)c2ccccc2)[PH+](c2ccccc2)c2ccccc2)cc1

>  <CLASS NAME>
active

$$$$

###

Test system: HOP-62 NSCLC
Test: NCI-60 one-dose screen, 48 h (100 = growth as untreated, 0 = no growth, -100 = all killed)
Details: 10 µM unless noted
This is part of a sample that, as a whole, favours compounds with a hit. Of some 83,000 tested, about 20% had one in any assay.
EXPERIMENTAL READOUT: growth (%)

>  <COMPOUND>
C=C1C(=O)O[C@H]2[C@H]1CC/C(COC(=O)/C=C\C(=O)NCc1ccc(Cn3c(=O)sn(CCCI)c3=O)cc1)=C\CC[C@@]1(C)O[C@@H]21

>  <VAL>
-36

$$$$
>  <COMPOUND>
Nc1nc(I)c2ncn(C3OC(CO)C(O)C3O)c2n1 (stereo unspecified)

>  <VAL>
95.8

$$$$
>  <COMPOUND>
CCC(O)(C(c1ccccc1)c1ccccn1)C(c1ccccc1)c1ccccn1 (stereo unspecified)

>  <VAL>
106

$$$$
>  <COMPOUND>
COc1ccc(OC)c(Nc2nc3nonc3nc2Nc2cc(OC)ccc2OC)c1

>  <VAL>
-12.8

$$$$
>  <COMPOUND>
O=C(c1ccccc1)c1ccc(N2C(=O)C3C4c5ccccc5C(/C=C/C(=O)c5ccccn5)(c5ccccc54)C3C2=O)cc1 (stereo unspecified)

>  <VAL>
24.3

$$$$
>  <COMPOUND>
Cc1ccc(/C(=N\N=C(N)N)c2ccccc2)cc1

>  <VAL>
-30.4

$$$$
>  <COMPOUND>
Cc1c2c(cn1Cc1ccccc1)CCc1cn(C)nc1-2

>  <VAL>
92.1

$$$$
>  <COMPOUND>
CCOC(=O)C1C(=O)C=C(c2cnccn2)CC1c1ccc(OC)c(OC)c1 (stereo unspecified)

>  <VAL>
88.3

$$$$
>  <COMPOUND>
CC(=O)c1ccc2c(c1)CCN2

>  <VAL>
96.8

$$$$
>  <COMPOUND>
COc1ccc(NC(=O)c2cccc(-c3cc(=O)c4c(O)c(OC)c(OC)cc4o3)c2)cc1

>  <VAL>
72.2

$$$$
>  <COMPOUND>
COC1(CC[C@@H](C)COC2OC(CO)C(O)C(O)C2O)O[C@H]2C[C@H]3[C@@H]4CC=C5C[C@@H](OC6OC(CO)C(OC7OC(C)C(O)C(O)C7O)C(O)C6OC6OC(C)C(O)C(O)C6O)CC[C@]5(C)[C@H]4CC[C@]3(C)[C@H]2[C@@H]1C (stereo partly specified)

>  <VAL>
-83

$$$$

###

Test system: SF-295 CNS
Experiment: NCI-60 one-dose screen, 48 h (100 = growth as untreated, 0 = no growth, -100 = all killed)
Details: 10 µM unless noted
This is part of a sample that, as a whole, favours compounds with a hit. Of some 83,000 tested, about 20% had one in any assay.
EXPERIMENTAL READOUT: growth (%)

>  <MOLECULE>
Cn1ccnc1C(=O)/C=C/c1ccc(C(=O)Nc2ccc(S(F)(F)(F)(F)F)cc2)cc1

>  <EXPERIMENTAL READOUT>
growth

>  <VAL>
32.7

$$$$
>  <MOLECULE>
CNC(=O)NCC1OC(n2cnc3c(NC(=O)Nc4ccccc4)ncnc32)C2OC(C)(C)OC12 (configuration not stated)

>  <EXPERIMENTAL READOUT>
growth

>  <VAL>
119

$$$$
>  <MOLECULE>
Cl.Fc1c[c-]c(-c2ccccn2)c(F)c1.[Pt].c1ccc(P(c2ccccc2)C([PH+](c2ccccc2)c2ccccc2)[PH+](c2ccccc2)c2ccccc2)cc1

>  <EXPERIMENTAL READOUT>
growth

>  <VAL>
5.14

$$$$
>  <MOLECULE>
NS(=O)(=O)Oc1ccc(-c2sc3cc(O)ccc3c2C(=O)c2ccc(OCCN3CCCCC3)cc2)cc1

>  <EXPERIMENTAL READOUT>
growth

>  <VAL>
48.1

$$$$
>  <MOLECULE>
C=C(CNCCc1ccc(O)cc1)[C@@H]1CC[C@]2(COC3CCCCO3)CC[C@]3(C)[C@H](CC[C@@H]4[C@@]5(C)CCC(N)C(C)(C)[C@@H]5CC[C@]43C)[C@@H]12 (some centres not stated)

>  <EXPERIMENTAL READOUT>
growth

>  <VAL>
-88

$$$$
>  <MOLECULE>
OC(CBr)c1ccnc2ccccc12 (configuration not stated)

>  <EXPERIMENTAL READOUT>
growth

>  <VAL>
96.6

$$$$
>  <MOLECULE>
C=C1C(=O)O[C@H]2[C@H]1CC/C(COC(=O)/C=C\C(=O)NCc1ccc(Cn3c(=O)sn(CCCC)c3=O)cc1)=C\CC[C@@]1(C)O[C@@H]21

>  <EXPERIMENTAL READOUT>
growth

>  <VAL>
65.1

$$$$
>  <MOLECULE>
COc1ccc(-c2cncnc2N)cc1OC

>  <EXPERIMENTAL READOUT>
growth

>  <VAL>
97.5

$$$$
>  <MOLECULE>
CCN(CC)CCCNC(=O)c1ccc(N)cc1

>  <EXPERIMENTAL READOUT>
growth

>  <VAL>
99.3

$$$$
>  <MOLECULE>
CCCCCCNC(=O)c1cc(NCc2cc(O)ccc2O)ccc1O

>  <EXPERIMENTAL READOUT>
growth

>  <VAL>
95.8

$$$$
>  <MOLECULE>
COC1=CC(c2ccc[nH]2)=N/C1=C\c1[nH]c(C)c(C(=O)OCCn2cc(CCC[C@@H]3Cc4cc(O)ccc4C4CC[C@]5(C)[C@@H](O)CC[C@H]5C43)nn2)c1C (some centres not stated)

>  <EXPERIMENTAL READOUT>
growth

>  <VAL>
96.1

$$$$
>  <MOLECULE>
CCOC(=O)Cc1csc2nc(-c3ccccc3)nn12

>  <EXPERIMENTAL READOUT>
growth

>  <VAL>
127

$$$$
